Ref: patent US6352988B2

Biological target: dopamine D4 receptors in cloned human dopamine receptor subtype 4.2 membranes (Homo sapiens, UniProt P21917, DEL271-302)
Sequence (P21917 with tags, fused parts or gaps DEL271-302): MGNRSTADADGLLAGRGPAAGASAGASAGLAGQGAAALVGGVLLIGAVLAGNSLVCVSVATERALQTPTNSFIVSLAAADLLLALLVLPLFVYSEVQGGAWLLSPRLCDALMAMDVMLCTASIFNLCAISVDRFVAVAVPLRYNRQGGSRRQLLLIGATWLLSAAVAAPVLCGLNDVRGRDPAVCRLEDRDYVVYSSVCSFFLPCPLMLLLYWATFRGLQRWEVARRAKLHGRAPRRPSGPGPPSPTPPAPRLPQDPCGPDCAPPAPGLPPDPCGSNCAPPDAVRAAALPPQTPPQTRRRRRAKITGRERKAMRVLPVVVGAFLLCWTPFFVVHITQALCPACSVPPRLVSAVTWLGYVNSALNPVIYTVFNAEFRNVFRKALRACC
Assay: 3H-YM-09151-2 binding (affinity for dopamine D4 receptors)
Details: 3H-YM-09151-2, cloned human D4.2 membranes; * means that the test result is preliminary; read-out: D4-bind. IC50
Known IC50 of a selection of compounds
Numeric only. Scale: nM

Worked examples follow.
> print(dat)
                                   compound  units  test.value
1  CC(=O)N1CC(CCN2CC=C(c3c[nH]c4cc(Cl)ccc34)CC2)c2cc(C)ccc21 (stereo not shown) [Compound 20m]     nM         8.4
2  c1ccc2c(c1)CCC2CN1CCC(c2c[nH]c3ccccc23)CC1 (stereo not shown) [Compound 5b]     nM           5
3  c1ccc2c(c1)CC(CN1CCN(c3ccc4[nH]ccc4c3)CC1)C2 [Compound 11f]     nM         1.6

Shifting focus to the compound that follows.
Prompt: Record request: IC50 value, item CC(=O)Nc1cccc2c1CCC2CN1CC=C(c2c[nH]c3cc(Cl)ccc23)CC1 (stereo not shown) [Compound 6c]
Response: 12

----------
Target: dopamine D4 receptors in cloned human dopamine receptor subtype 4.2 membranes (Homo sapiens, UniProt P21917, DEL271-302)
Test: 3H-YM-09151-2 binding (affinity for dopamine D4 receptors)
Conditions: 3H-YM-09151-2, cloned human D4.2 membranes; * means that the test result is preliminary; read-out: D4-bind. IC50
Recorded Endpoint: pIC50
pIC50 here: minus log base 10 of the concentration, concentration in moles per litre.

Worked examples follow.
> print(dat)
                                   molecule  recorded.endpoint  test.value
1  Clc1ccc2c(C3CCN(CC4Cc5ccccc5C4)CC3)c[nH]c2c1Cl [Compound 21d]              pIC50        8.41
2  Clc1ccc2c(C3=CCN(CC4CCc5ccc6[nH]ccc6c54)CC3)c[nH]c2c1 (centres unmarked) [Compound 16a]              pIC50        8.21
3  Clc1ccc2c(C3=CCN(CCC4CCc5ccccc54)CC3)c[nH]c2c1 (centres unmarked)              pIC50        8.46
4  CC(=O)N1CC(CCN2CC=C(c3c[nH]c4c(Cl)cccc34)CC2)c2ccccc21 (centres unmarked) [Compound 20f]              pIC50        8.49

Shifting focus to the molecule that follows.
Prompt: Record request: pIC50 value, item c1ccc2c(c1)CC(CN1CCC(c3c[nH]c4ccccc34)CC1)C2 [Compound 21b]
Response: 8.68

----------
Where a name gives a salt, the structure may show the parent alone.
Known melting point of a selection of compounds

Prompt: Record request: melting point value, item Clc1ccc2c(C3=CCN(CCCC4Cc5ccccc5C4)CC3)c[nH]c2c1 [Compound 11h]
Response: 176 to 177 °C

Prompt: Record request: melting point value, item Clc1ccc2c(C3=CCN(CCCCC4CCc5ccccc54)CC3)c[nH]c2c1 (stereo not shown) (as salt: oxalate)
Response: 191 to 192 °C

Prompt: Record request: melting point value, item `COc1cc2c(cc1OC)CC(CN1CCC(c3c[nH]c4cc(Cl)ccc34)CC1)C2`
Response: 68 to 79 °C

Prompt: Record request: melting point value, item C1=C(c2c[nH]c3ccccc23)CCN(CC2Cc3ccccc3C2)C1 [Compound 11b]
Response: 156 to 157 °C
